System: Tetranychus urticae
Assay: Biological activity on Tetranychus urticae eggs (Acari)
Format: in vivo
Settings: bean leaf discs, 144 h
ENDPOINT_NAME: Activity (mortality class), Tetranychus U. (eggs)

1) CC=Cc1nc(OP(=S)(OCC)OCC)n(C(C)C)n1; ++ (100% of mortality)
2) CCOP(=S)(OCC)Oc1nc(C(=O)CSC)nn1-c1ccccc1; ++ (100% of mortality)
3) CCOP(=S)(OCC)Oc1nc(C(C)SC)nn1-c1ccccc1 (stereo not drawn); ++ (100% of mortality)
4) CCCCn1nc(C=C(Cl)Cl)nc1OP(=S)(OCCC)OCCC; ++ (100% of mortality)
5) CCOP(=S)(OCC)Oc1nc(C(C)OC)nn1-c1ccccc1 (stereo not drawn); ++ (100% of mortality)
6) C=CCn1nc(C=C(Cl)Cl)nc1OP(=S)(OCC)OCC; ++ (100% of mortality)
7) CCCOP(=S)(OCCC)Oc1nc(C=C(Cl)Cl)nn1C; ++ (100% of mortality)

Input CCOP(=S)(OCC)Oc1nc(C(C)=C(Cl)Cl)nn1CC . Output Activity (mortality class), Tetranychus U. (eggs): ++ (100% of mortality)
